Entry source: ChEMBL document CHEMBL3885861

organism: Rattus norvegicus; experiment: Open TG-GATES - Regimen: Single; format: toxicity, organism-based, Sprague-Dawley; design: regimen Single, gender Male, age 6 weeks; details: in vivo, po, 1000 mg/kg, 24 h, tissue Plasma, route gavage, dose level High
Parameter threshold = 80 mg/dL. Response is Fulfilled when TC meets or exceeds it, else Not fulfilled.

Decide: is the reported value of TC for Cc1nnc2n1-c1ccc(Cl)cc1C(c1ccccc1Cl)=NC2 equal to or greater than 80 mg/dL?
Fulfilled

// inclusive: TC at least 80 mg/dL? input: CN/C(=N/CCSCc1nc[nH]c1C)NC#N
Not fulfilled

hey, is TC for this one >= 80 mg/dL? CNC(=C[N+](=O)[O-])NCCSCc1ccc(CN(C)C)o1
Fulfilled

Could you tell me if the measured TC of O=C(OC[C@H]1O[C@@H](OC(=O)c2cc(O)c(O)c(OC(=O)c3cc(O)c(O)c(O)c3)c2)[C@H](OC(=O)c2cc(O)c(O)c(OC(=O)c3cc(O)c(O)c(O)c3)c2)[C@@H](OC(=O)c2cc(O)c(O)c(OC(=O)c3cc(O)c(O)c(O)c3)c2)[C@@H]1OC(=O)c1cc(O)c(O)c(OC(=O)c2cc(O)c(O)c(O)c2)c1)c1cc(O)c(O)c(OC(=O)c2cc(O)c(O)c(O)c2)c1 reaches 80 mg/dL or more?
Not fulfilled

---

Would you kindly list Eos for each of these compounds?
organism: Rattus norvegicus; experiment: Open TG-GATES - Regimen: Daily Repeat; assay type: toxicity, organism-based, Sprague-Dawley; parameters: regimen Daily Repeat, gender Male, age 6 weeks; conditions: in vivo, po, 0 mg/kg, […], tissue Blood, route gavage, dose level Control, time 7 day
One number for each entry, in %.

For orientation, consider the following solved cases.
compound	property_name	uom	reported_measurement
CN(C)CCC(c1ccc(Cl)cc1)c1ccccn1 (stereo not drawn) [CHLORPHENIRAMINE]	Eos	%	0.8
COC(=O)C1=C(C)NC(C)=C(C(=O)OC)C1c1ccccc1[N+](=O)[O-] [NIFEDIPINE]	Eos	%	1.4
CC(C)NNC(=O)c1ccncc1 [IPRONIAZID]	Eos	%	0.8
Cc1nnc2n1-c1ccc(Cl)cc1C(c1ccccc1Cl)=NC2 [TRIAZOLAM]	Eos	%	1.2
CNC(=C[N+](=O)[O-])NCCSCc1ccc(CN(C)C)o1 [RANITIDINE]	Eos	%	1.2

Would you mind listing Eos for each of the following compounds?
1. CCOc1ccc(NC(C)=O)cc1 [PHENACETIN]
2. O=C(OC[C@H]1O[C@@H](OC(=O)c2cc(O)c(O)c(OC(=O)c3cc(O)c(O)c(O)c3)c2)[C@H](OC(=O)c2cc(O)c(O)c(OC(=O)c3cc(O)c(O)c(O)c3)c2)[C@@H](OC(=O)c2cc(O)c(O)c(OC(=O)c3cc(O)c(O)c(O)c3)c2)[C@@H]1OC(=O)c1cc(O)c(O)c(OC(=O)c2cc(O)c(O)c(O)c2)c1)c1cc(O)c(O)c(OC(=O)c2cc(O)c(O)c(O)c2)c1 [TANNIC ACID]
3. Brc1ccccc1 [BROMOBENZENE]

[1.4, 1, 1]

---

species on record: Rattus norvegicus; experiment: Open TG-GATES - Regimen: Single; type: toxicity, organism-based, Sprague-Dawley; design: regimen Single, gender Male, age 6 weeks; settings: in vivo, po, 300 mg/kg, 3 h, tissue Blood, route gavage, dose level Middle
property_name: MCHC

Consider the reported MCHC for these compounds:
O=C(OC[C@H]1O[C@@H](OC(=O)c2cc(O)c(O)c(OC(=O)c3cc(O)c(O)c(O)c3)c2)[C@H](OC(=O)c2cc(O)c(O)c(OC(=O)c3cc(O)c(O)c(O)c3)c2)[C@@H](OC(=O)c2cc(O)c(O)c(OC(=O)c3cc(O)c(O)c(O)c3)c2)[C@@H]1OC(=O)c1cc(O)c(O)c(OC(=O)c2cc(O)c(O)c(O)c2)c1)c1cc(O)c(O)c(OC(=O)c2cc(O)c(O)c(O)c2)c1 33.4%
Cc1nnc2n1-c1ccc(Cl)cc1C(c1ccccc1Cl)=NC2 33%
COC(=O)C1=C(C)NC(C)=C(C(=O)OC)C1c1ccccc1[N+](=O)[O-] 32.9%
CNC(=C[N+](=O)[O-])NCCSCc1ccc(CN(C)C)o1 34.2%

Field: next compound
The reported value for CN/C(=N/CCSCc1nc[nH]c1C)NC#N in terms of MCHC is 33.7%

---

organism: Rattus norvegicus; test: Open TG-GATES - Regimen: Daily Repeat; type: toxicity, organism-based, Sprague-Dawley; parameters: regimen Daily Repeat, gender Male, age 6 weeks; conditions: in vivo, po, 1000 mg/kg, 72 h, tissue Blood, route gavage, dose level High, time 3 day
I'd be grateful if you could share measured MCHC for these entries.
Numbers only, in %.

Known results for molecules:
CNC(=C[N+](=O)[O-])NCCSCc1ccc(CN(C)C)o1 34.1
O=C(OC[C@H]1O[C@@H](OC(=O)c2cc(O)c(O)c(OC(=O)c3cc(O)c(O)c(O)c3)c2)[C@H](OC(=O)c2cc(O)c(O)c(OC(=O)c3cc(O)c(O)c(O)c3)c2)[C@@H](OC(=O)c2cc(O)c(O)c(OC(=O)c3cc(O)c(O)c(O)c3)c2)[C@@H]1OC(=O)c1cc(O)c(O)c(OC(=O)c2cc(O)c(O)c(O)c2)c1)c1cc(O)c(O)c(OC(=O)c2cc(O)c(O)c(O)c2)c1 33.3
CCOc1ccc(NC(C)=O)cc1 33.9
CN/C(=N/CCSCc1nc[nH]c1C)NC#N 33.8
Cc1nnc2n1-c1ccc(Cl)cc1C(c1ccccc1Cl)=NC2 33.6

Let us move to another entry and its MCHC.
MCHC recorded for this molecule, COC(=O)C1=C(C)NC(C)=C(C(=O)OC)C1c1ccccc1[N+](=O)[O-] , is 33.2

---

organism: Rattus norvegicus; experiment: Open TG-GATES - Regimen: Single; format: toxicity, organism-based, Sprague-Dawley; parameters: regimen Single, gender Male, age 6 weeks; conditions: in vivo, po, 100 mg/kg, 9 h, tissue Liver, route gavage, dose level Low
hey, just use Yes if measured LIVER is less than 8 g, otherwise No

Solved entries (count: 3):
molecule	assigned_label
CNC(=C[N+](=O)[O-])NCCSCc1ccc(CN(C)C)o1 [RANITIDINE]	No
Cc1nnc2n1-c1ccc(Cl)cc1C(c1ccccc1Cl)=NC2 [TRIAZOLAM]	Yes
O=C(OC[C@H]1O[C@@H](OC(=O)c2cc(O)c(O)c(OC(=O)c3cc(O)c(O)c(O)c3)c2)[C@H](OC(=O)c2cc(O)c(O)c(OC(=O)c3cc(O)c(O)c(O)c3)c2)[C@@H](OC(=O)c2cc(O)c(O)c(OC(=O)c3cc(O)c(O)c(O)c3)c2)[C@@H]1OC(=O)c1cc(O)c(O)c(OC(=O)c2cc(O)c(O)c(O)c2)c1)c1cc(O)c(O)c(OC(=O)c2cc(O)c(O)c(O)c2)c1 [TANNIC ACID]	Yes

Is it true that LIVER reported for COC(=O)C1=C(C)NC(C)=C(C(=O)OC)C1c1ccccc1[N+](=O)[O-] [NIFEDIPINE] is less than 8 g?
Yes

Hello, is LIVER of the following molecule strictly smaller than 8 g? CN/C(=N/CCSCc1nc[nH]c1C)NC#N [CIMETIDINE]
No

---

species on record: Rattus norvegicus; assay: Open TG-GATES - Regimen: Single; assay type: toxicity, organism-based, Sprague-Dawley; design: regimen Single, gender Male, age 6 weeks; conditions: in vivo, po, 1000 mg/kg, 24 h, tissue Blood, route gavage, dose level High
// assign y if Ret falls strictly below 8%, else n (ties count as n)

compound	assigned_label
CNC(=C[N+](=O)[O-])NCCSCc1ccc(CN(C)C)o1 [RANITIDINE]	y
COC(=O)C1=C(C)NC(C)=C(C(=O)OC)C1c1ccccc1[N+](=O)[O-] [NIFEDIPINE]	n
CN/C(=N/CCSCc1nc[nH]c1C)NC#N [CIMETIDINE]	y

Note: attention shifts to another entry.
Bench note: check whether O=C(OC[C@H]1O[C@@H](OC(=O)c2cc(O)c(O)c(OC(=O)c3cc(O)c(O)c(O)c3)c2)[C@H](OC(=O)c2cc(O)c(O)c(OC(=O)c3cc(O)c(O)c(O)c3)c2)[C@@H](OC(=O)c2cc(O)c(O)c(OC(=O)c3cc(O)c(O)c(O)c3)c2)[C@@H]1OC(=O)c1cc(O)c(O)c(OC(=O)c2cc(O)c(O)c(O)c2)c1)c1cc(O)c(O)c(OC(=O)c2cc(O)c(O)c(O)c2)c1 [TANNIC ACID] shows Ret below 8%
n

---

species: Rattus norvegicus; assay: Open TG-GATES - Regimen: Daily Repeat; type: toxicity, organism-based, Sprague-Dawley; set-up: regimen Daily Repeat, gender Male, age 6 weeks; details: in vivo, po, 100 mg/kg, 72 h, tissue Plasma, route gavage, dose level Low, time 3 day
property_name: TC (mg/dL)
Numbers only, in mg/dL.

Reference set (3 entries):
molecule	uom	TC
O=C(OC[C@H]1O[C@@H](OC(=O)c2cc(O)c(O)c(OC(=O)c3cc(O)c(O)c(O)c3)c2)[C@H](OC(=O)c2cc(O)c(O)c(OC(=O)c3cc(O)c(O)c(O)c3)c2)[C@@H](OC(=O)c2cc(O)c(O)c(OC(=O)c3cc(O)c(O)c(O)c3)c2)[C@@H]1OC(=O)c1cc(O)c(O)c(OC(=O)c2cc(O)c(O)c(O)c2)c1)c1cc(O)c(O)c(OC(=O)c2cc(O)c(O)c(O)c2)c1 [TANNIC ACID]	mg/dL	84.6
Cc1nnc2n1-c1ccc(Cl)cc1C(c1ccccc1Cl)=NC2 [TRIAZOLAM]	mg/dL	75.4
CNC(=C[N+](=O)[O-])NCCSCc1ccc(CN(C)C)o1 [RANITIDINE]	mg/dL	82.2

// input: 2 molecules below; output: TC for each
1. CCOc1ccc(NC(C)=O)cc1 [PHENACETIN]
2. COC(=O)C1=C(C)NC(C)=C(C(=O)OC)C1c1ccccc1[N+](=O)[O-] [NIFEDIPINE]

1: 77; 2: 82.2

The value of TC measured for the molecule CN/C(=N/CCSCc1nc[nH]c1C)NC#N [CIMETIDINE] turned out to be 78.6
